Tested on: SN12C
Assay: NCI tumour cell line growth inhibition, 48 h
Calls of active or inactive are those of the source. Rule as the data show it: active = GI50 up to about 1.1 µM and inactive = higher.
Possible outcomes: active, inactive

>  <compound>
CO[C@H]1C[C@@H]2CC[C@@H](C)[C@@](O)(O2)C(=O)C(=O)N2CCCC[C@H]2C(=O)O[C@H]([C@H](C)C[C@@H]2CC[C@@H](OC(=O)C(C)(CO)CO)[C@H](OC)C2)CC(=O)[C@H](C)/C=C(\C)[C@@H](O)[C@@H](OC)C(=O)[C@H](C)C[C@H](C)/C=C/C=C/C=C/1C

>  <qualitative_label>
active

$$$$
>  <compound>
COC(=O)c1c(C)oc2ccc(OC(C)=O)cc12

>  <qualitative_label>
inactive

$$$$
>  <compound>
Nc1c(-c2ccc(Cl)cc2Cl)[n+]([O-])c2ccccc2[n+]1[O-]

>  <qualitative_label>
inactive

$$$$
>  <compound>
CC(=O)Nc1cc([As](=O)(O)O)ccc1O

>  <qualitative_label>
inactive

$$$$
>  <compound>
O=c1[nH]nc(-c2ccccc2)n1-n1cnnc1

>  <qualitative_label>
inactive

$$$$
>  <compound>
CCCCC1Cc2cc(O)ccc2-c2n1c1cc(O)ccc1[n+]2C.CCCCC1Cc2cc(O)ccc2-c2n1c1ccc(O)cc1[n+]2C (configuration not stated)

>  <qualitative_label>
inactive

$$$$
>  <compound>
COC(=O)C1=CC(=O)OC1(OO)c1ccc(Br)cc1 (configuration not stated)

>  <qualitative_label>
inactive

$$$$
>  <compound>
COc1ccc(C[C@@H](C(=O)O[C@H](C)[C@H](NC(=O)[C@@H](CC(C)C)N(C)C(=O)C2CCCN2C(=O)[C@H](C)O)C(=O)N2CCCCNC(=O)[C@@H](C)C(=O)[C@H](C(C)C)OC(=O)C[C@H](O)[C@H]2CC(C)C)N(C)C(C)=O)cc1 (some centres not stated)

>  <qualitative_label>
inactive

$$$$
>  <compound>
N=C(N)NS(=O)(=O)c1ccc(N/N=C2/CCOC2=O)cc1

>  <qualitative_label>
inactive

$$$$
>  <compound>
O=c1[nH]nc(-c2ccccc2)c2[nH]c3c4ccccc4ccc3c12

>  <qualitative_label>
inactive

$$$$
>  <compound>
O=C(NCCCN(CCCCN(CCCNC(=O)C(F)(F)F)Cc1ccccc1)Cc1ccccc1)C(F)(F)F

>  <qualitative_label>
inactive

$$$$
>  <compound>
O=[N+]([O-])c1cccc(-c2csc(N/N=C3\NC/C(=C/c4ccc5c(c4)OCO5)S3)n2)c1

>  <qualitative_label>
inactive

$$$$
>  <compound>
COC(=O)C1(CCC(C)=O)CCCCCC1=O (configuration not stated)

>  <qualitative_label>
inactive

$$$$
>  <compound>
CO[P@]1(=O)O[C@@H](c2ccccc2)[C@H](O)[C@@]1(O)c1ccccc1

>  <qualitative_label>
inactive

$$$$
>  <compound>
C[C@@H]1C(=O)CC2(O)[C@@]13C[C@@H](OC(=O)[C@@H]3O)[C@@H](C)[C@@]21COC1=O (some centres not stated)

>  <qualitative_label>
inactive

$$$$
>  <compound>
O=P1(c2ccccc2)Nc2ccccc2SSc2ccccc2N1

>  <qualitative_label>
inactive

$$$$
>  <compound>
CCn1cnc2c(=S)nc(N)[nH]c21

>  <qualitative_label>
inactive

$$$$
